The origin of these recorded values is patent US8507724B2.

Assay Explanation: in vivo
Format: in vivo
Measurement Conditions: rat, plasma, iv, 1 mg/kg, i.v. 1 mg/kg, mean n=3, read-out: Vd
Endpoint Name: Vd
Remember to put the unit after the number in your answer.

Q: Vd lookup needed for CC(C)c1cc(Cl)cc(C(C)C)c1O , thanks.
A: 11.8 L/kg

---

Assay Explanation: in vivo
Assay type: in vivo
Measurement Conditions: rat, plasma, po, 8 mg/kg, p.o. 8 mg/kg, mean n=3
Endpoint Name: Vd/F (L/kg)
Give just the number in L/kg; leave the unit off.

Q: Vd/F lookup needed for CC(C)c1cc(Cl)cc(C(C)C)c1O [4-Cl-propofol, 4-Chloropropofol] , thanks.
A: 110
